system: T1, Macaca fascicularis PDGFRb.mmh (Macaca fascicularis)
T1 construct: Soluble monomeric construct; also called mfPDGFRb.mmh
T1 chain: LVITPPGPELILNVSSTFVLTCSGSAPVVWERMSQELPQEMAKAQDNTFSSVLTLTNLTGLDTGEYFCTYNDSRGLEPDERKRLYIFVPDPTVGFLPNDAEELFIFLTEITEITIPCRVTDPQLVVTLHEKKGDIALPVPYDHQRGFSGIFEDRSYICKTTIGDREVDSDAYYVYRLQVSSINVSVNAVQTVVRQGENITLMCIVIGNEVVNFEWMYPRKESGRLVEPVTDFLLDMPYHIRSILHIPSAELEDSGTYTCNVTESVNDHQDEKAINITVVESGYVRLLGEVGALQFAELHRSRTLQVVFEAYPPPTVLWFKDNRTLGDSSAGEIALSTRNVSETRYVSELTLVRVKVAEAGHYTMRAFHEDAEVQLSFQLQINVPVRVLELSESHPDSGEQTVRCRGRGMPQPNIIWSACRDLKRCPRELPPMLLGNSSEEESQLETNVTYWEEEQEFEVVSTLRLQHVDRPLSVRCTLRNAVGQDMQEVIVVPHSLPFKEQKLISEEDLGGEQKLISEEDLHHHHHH
test-name: SPR, mAb captured, 25 C
Description: Antibodies, expressed as either mouse Fc (prefix H1M; H2M) or human Fc (prefix H4H), were captured on their respective anti-Fc sensor surfaces (Mab capture format). […] Kinetic association (kₐ) and dissociation (kd) rate constants were determined by processing and fitting the data to a 1:1 binding model using Scrubber 2.0 curve fitting software.
Can you tell me t1/2 for the items I'm about to list?
Numbers only, in min.

binder: H2M3368N (antibody, V domains shown, mouse Fc (H2M prefix; isotype not spelled out)) VH: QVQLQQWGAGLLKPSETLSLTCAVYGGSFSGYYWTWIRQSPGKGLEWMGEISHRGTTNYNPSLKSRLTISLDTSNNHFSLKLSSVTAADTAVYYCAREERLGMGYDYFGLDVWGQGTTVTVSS VL: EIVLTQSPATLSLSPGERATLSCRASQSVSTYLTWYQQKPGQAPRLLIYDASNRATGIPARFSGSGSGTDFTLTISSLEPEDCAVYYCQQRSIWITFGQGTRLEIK
uom: min
t1/2: 63

Kindly consider the entry below.
// query Give the reported value of t1/2 for this record: H4H3095S (antibody, human IgG4, V domains shown, human IgG4 Fc (H4H prefix)) VH: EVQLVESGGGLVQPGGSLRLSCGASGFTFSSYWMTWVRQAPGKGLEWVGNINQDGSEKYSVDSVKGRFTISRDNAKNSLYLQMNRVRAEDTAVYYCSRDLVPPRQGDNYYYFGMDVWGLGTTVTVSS VL: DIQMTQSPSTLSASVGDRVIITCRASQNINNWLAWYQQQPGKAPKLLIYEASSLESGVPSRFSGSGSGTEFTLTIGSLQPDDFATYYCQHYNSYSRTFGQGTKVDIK
// result 7

Values compiled from patent US20170210813A1.
